# test.name: Novel Modifiers of Survival Motor Neuron (SMN) Protein: Gene Identification via Genome-wide siRNA Screen;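 also: luminescence tracks full-length SMN protein made from the SMN2 reporter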
# condition.description: HEK293T SMN2-luciferase reporter, siRNA knockdown, 72 h; actives lie on both sides
Out of some 31,000 sequences screened, about 1,400 (4.5%) were called active.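 The calls were made as follows: active = median seed-adjusted z-score above 1 or below -1; inactive = the rest.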 Shown is part of a subset that was picked to be rich in actives.
Labels: active, inactive

{"sequence.entry": "GGCUGAUUACGUUCGGGAATT against MYL2", "assigned.class": "inactive"}
{"sequence.entry": "CGGGUAUUGUGGGACUGAATT against USP39", "assigned.class": "inactive"}
{"sequence.entry": "CCCAAUCAGUAAGAACCAATT against CEACAM1", "assigned.class": "inactive"}
{"sequence.entry": "GUGGGAGUCGGGACAUAUATT against MAFK", "assigned.class": "active"}
{"sequence.entry": "GCUGCGAAAGGAUCUCAAATT against UBE3B", "assigned.class": "inactive"}
{"sequence.entry": "CUAUUAGGUUGACCAAUAATT against OSGEPL1", "assigned.class": "inactive"}
{"sequence.entry": "CCAUAGAAUUCAAAAUCCUTT against BCL2L14", "assigned.class": "inactive"}
{"sequence.entry": "CAGAGAAACGAGUCUUUAATT against ST6GALNAC5", "assigned.class": "inactive"}
{"sequence.entry": "CUACAUUGCUGGGACUAAUTT against RRM1", "assigned.class": "active"}
{"sequence.entry": "CAGUCGAUGUCCAUGAAUATT against LRRN1", "assigned.class": "inactive"}
{"sequence.entry": "GCUGCGAGCUCGAAACUUUTT against SEC14L4", "assigned.class": "inactive"}
{"sequence.entry": "CCAUUCUUCUAGCAACUGATT against DDX47", "assigned.class": "inactive"}
{"sequence.entry": "GACCCAUACAGAAAGUAGATT against SSR1", "assigned.class": "inactive"}
{"sequence.entry": "CCAAAGAUAUCGGACCCUATT against PI4K2A", "assigned.class": "inactive"}
{"sequence.entry": "GUCUAAUGCACUUAGCUAATT against HEL308", "assigned.class": "inactive"}
{"sequence.entry": "ACUGACAUUUUUCAACUCATT against ALDH1L1", "assigned.class": "inactive"}
{"sequence.entry": "GAUAGGAUGUGACAAUGAATT against ING2", "assigned.class": "inactive"}
{"sequence.entry": "UCCUCUAAAAAUUACAGUATT against TUBB2A", "assigned.class": "active"}
{"sequence.entry": "GAACUAGCACGCAUCAAGATT against PPM1G", "assigned.class": "inactive"}
{"sequence.entry": "GCCUAUUAUGGACAACAAUTT against IKZF2", "assigned.class": "inactive"}
{"sequence.entry": "GGCAAGUGCUUCACUCAAATT against ZNF665", "assigned.class": "active"}
{"sequence.entry": "GAAACUUCCUAAGUCGAAATT against FAM57A", "assigned.class": "inactive"}
{"sequence.entry": "CUGUUUAAGCGAUGACAAATT against CFL2", "assigned.class": "inactive"}
{"sequence.entry": "GUUCAUGCAUGGGUGGAAATT against CD200R2", "assigned.class": "inactive"}
{"sequence.entry": "GAAAUACCCUCACAUGUUATT against LSM2", "assigned.class": "active"}
{"sequence.entry": "GCAUUUCCCAAGACGUGGATT against ZFYVE28", "assigned.class": "inactive"}
{"sequence.entry": "CAAAGUACCGAGUCGAAUATT against SENP7", "assigned.class": "inactive"}
{"sequence.entry": "CAUUGAGACCUAUCUGCUATT against MYH11", "assigned.class": "inactive"}
{"sequence.entry": "GGACAACAUUUGACACCAATT against APOBEC2", "assigned.class": "inactive"}
{"sequence.entry": "GUGCUUUGGUGGUACUAUUTT against ELOVL2", "assigned.class": "inactive"}
{"sequence.entry": "GACUUGAGCUAAAUGGUCATT against SIAH1", "assigned.class": "active"}
{"sequence.entry": "GGUUAUCGACGACAGCAGATT against AGAP3", "assigned.class": "inactive"}
{"sequence.entry": "GGAUGACAGUCUCAUUGCATT against GON4L", "assigned.class": "inactive"}
{"sequence.entry": "CAGGAUAUCGAAUCCCUAATT against PPFIA2", "assigned.class": "inactive"}
{"sequence.entry": "CACAUUAAAGUGUAAAGAATT against PIP3-E", "assigned.class": "inactive"}
